# credit: PubChem BioAssay (NCI)

- Tested on: HOP-92 NSCLC
- experiment-notes: NCI tumour cell line growth inhibition, 48 h
Provide the reported log10(TGI) of each item.
Give log10 of TGI, with TGI taken in µM.

# example entries with known answers
// sample CC[PH+](CC)CC.O=COC1OC([S-])C(OC=O)C(OC=O)C1OC=O.[Au+] (stereo not drawn) , its log10(TGI) was 0.56

Recorded log10(TGI) (compound COc1ccc(-c2oc3c(OC)c(OC)c(OC)c(OC)c3c(=O)c2OC)cc1OC ): -1.05

Provide log10(TGI) for all items below, preserving their order.
1. CSc1nc(NC(C)C)c2c(n1)Sc1nc3ccccc3n1N=C2
2. O=C1c2cc(Cl)ccc2-c2c1c1ccc([N+](=O)[O-])cc1c(=O)n2CCCBr
3. CCn1c(-c2nonc2N)nc2c(C#CC(C)(C)O)nc(OCCNC)cc21
4. Cc1cc(C)c(S(=O)(=O)N(CCCN)OCCCON(CCCN)S(=O)(=O)c2c(C)cc(C)cc2C)c(C)c1

Outgoing:
1.49
0.95
1.16
0.72

Lab note: each compound below needs its log10(TGI) filled in.
1. C/C(Cl)=N\OC(=O)Nc1ccc(C)cc1
2. COC(=O)c1nc(Cl)nc(Cl)c1Cl
3. CCOc1cc(/C=N\Nc2nnc(C)n2N)c(C)cc1N(CCCl)CCCl
4. Cc1cc2c(cc1C)N(C(=O)CCl)CCN2C(=O)CCl

Outgoing:
1. 1.57
2. 1.63
3. 0.05
4. 0.51

I need log10(TGI) for every entry listed below, if you could help.
1. O=C(O)C1CCCCC1C(=O)O.[NH-]C1CCC1.[NH2-].[Pt+2] (stereo not drawn)
2. CCn1c2ccc(C(=O)CCCN3CCCCC3)cc2c2cc(C(=O)CCCN3CCCCC3)ccc21

Outgoing:
1.64
1.48

Just so you know, measured log10(TGI) for COc1cc(/C=C2\C(=O)Nc3ccc(N(C)C)cc32)cc(OC)c1OC came out at 1.56

---

Field: TGI. Provide a value for each of the compounds that follow.
- System: M19-MEL melanoma
- experiment-notes: NCI tumour cell line growth inhibition, 48 h

The following compounds have reported results that may help.
Value sought: TGI, system M19-MEL melanoma, item CCOC(=O)/C=C1\CCCC12OCCO2 . Result: > 100 µM

M19-MEL melanoma assay, compound O=C(c1ccncc1)n1nc(-c2ccccc2)c(N=Nc2ccccc2[N+](=O)[O-])c1-c1ccccc1 , recorded TGI = > 100 µM

// TGI (M19-MEL melanoma) for Cc1cc(C)nc(NS(=O)(=O)c2ccc(Nc3c4ccccc4nc4c(C(=O)N5CCN(CCOS(C)(=O)=O)CC5)cccc34)cc2)n1 = > 100 µM

Tested on M19-MEL melanoma: CCOC(=O)c1cc(/C=C/C(C)=C/C(=O)OC)oc1C . Observed TGI: > 100 µM

// for each compound in input: emit TGI
1. O=[N+]([O-])c1cnn(C2=CNc3ccccc3N=C2)c1
2. COc1ccc(/C=C2\CCCC(C(NO)c3ccc(OC)cc3)C2=NO)cc1 (configuration not stated)
3. CC[O-].CC[O-].O=S(=O)([O-])c1ccc([O-])c2ncccc12.O=S(=O)([O-])c1ccc([O-])c2ncccc12.[Ti+4]
4. CC(=O)NC(CCCCNC(=O)NCCCl)C(=O)NCc1ccccc1 (configuration not stated)
5. CS(=O)(=O)CSCSSCS(C)(=O)=O
6. CC1=C(C(=O)Nc2cccc(Cl)c2)C(c2ccccc2F)C(C(=O)Nc2cccc(Cl)c2)=C(C)N1

Outgoing:
> 100 µM
> 100 µM
> 100 µM
> 100 µM
> 100 µM
26.4 µM

Please give TGI for each item listed below.
1. NC(=S)NNc1c([N+](=O)[O-])cnn(-c2ccccc2)c1=O
2. COC(=O)[C@]12CCC(C)[C@H](C)[C@H]1C1=CCC3[C@@]4(C)CC[C@H](OC(C)=O)C(C)(C)C4CC[C@@]3(C)C1(C)C(O)C2 (some centres not stated)
3. CCCCN(CCCC)c1c([N+](=O)[O-])c(=O)nc2ccccn12
4. CCOP(=O)(OCC)OC(C#N)c1ccc(-c2ccccc2)cc1 (configuration not stated)
5. Cc1cccc(C)c1NC(=O)C1C(=O)N(c2c(C)cccc2C)C(=O)/C1=N\NC(N)=S (configuration not stated)
6. COC(=O)c1ccccc1NC(=O)C(=O)NNC(=O)c1ccncc1

Outgoing:
1. 26.5 µM
2. > 100 µM
3. > 100 µM
4. 50.3 µM
5. > 100 µM
6. > 100 µM

Entry COC1C2C=CC(C2)[C@H]1[N+](=O)[O-] (some centres not stated) : TGI on M19-MEL melanoma = > 100 µM
